FYI, the data here is from ChEMBL document CHEMBL4513216.

METHOD_DESCRIPTION: Toxicity liver stage against HepG2, at 10uM
Assay type: cell-based
Set-up: test concentration 10 uM, cell line HepG2-A16-CD81EGFP
MEASUREMENT_CONTEXT: human, HepG2-A16-CD81EGFP cells; read-out: INHIBITION
// cytotoxicity at 10 µM lookup, one value per entry
RECORDED_ENDPOINT: cytotoxicity at 10 µM (%)

# COMPOUND, TEST_RESULT
data = [
    ("C=Cc1ccc(CSc2nc3c(c(=O)[nH]2)CN(CCC)CC3)cc1", -4.68),
    ("O=C(C1CCCC1)N1CC[C@]2(O)CCN(Cc3ncccn3)C[C@@H]2C1", 9.04),
    ("Cn1cc(CN2CCCC3(CCN(Cc4ccncc4)C3=O)C2)cn1 (stereo not drawn)", 8.68),
    ("Cc1cc(C(=O)N2CCCC(Cn3cc(C4CC4)nn3)C2)nc(C)n1 (stereo not drawn)", -0.916),
    ("c1cncc(COCc2nnc3n2CCN(CC2CC2)C3)c1", -3.03),
    ("Cc1nc(NCCSc2nnc(C)s2)c2cccnc2n1", -0.125),
    ("CN(Cc1cccc(F)c1)C(=O)c1ccncc1Cl", 10.5),
    ("Cc1cc(CN2CCN(c3ccc4nncn4n3)C(C)C2)on1 (stereo not drawn)", 6.91),
    ("CN1CCc2c1nc1c(c2N)CCC1", 0.0371),
    ("CC[C@H]1COCCN1C(=O)c1cnc(-c2ccccc2)nc1C", 2.84),
    ("CN(C)CCN(C)c1ccc(-c2nc(COc3ccccc3)no2)cn1", 4.35),
    ("CCOC(=O)CNc1nc(COC)nc2c1cnn2C", 9),
    ("COc1cccc(-c2nc3c([nH]2)CCNC3)c1F", -44.7),
    ("CCOC(=O)c1ccc(NC(=O)c2c(O)nc3c(c2O)CCCC3)cc1", 8.46),
    ("O=C(C1CC1)N1C[C@H]2CCCN(S(=O)(=O)c3cccc(F)c3)[C@H]2C1", 5.11),
    ("Cc1cccc(C)c1OC1CN(Cc2cnn(C)c2)C1", 7.97),
    ("COc1ccc(CN(C)[C@@H]2CN(C(=O)c3cccnc3)C[C@H]2O)cc1", 10.9),
    ("Cc1cc(CN2CCN(C(=O)C3(C#N)CCCCC3)CC2)on1", 4.81),
    ("O=C(NCCNc1ncccn1)C1CCCC1", -22.9),
    ("Cc1ccc(N2CC[C@H]3O[C@H](C(=O)N4CCCCO4)CC[C@H]32)nn1", 10.1),
    ("CCc1cc(C(=O)N2CCCC(c3cc(=O)nc4n3CCC4)C2)no1 (stereo not drawn)", -2.6),
    ("O=C(Cc1cccc(F)c1)N1C[C@H]2CN(Cc3cccnc3)C[C@H]2C1", 0.0515),
    ("N#Cc1cccc(S(=O)(=O)NC(=O)COCC(F)(F)F)c1", -0.828),
]
